Target under test: Cathepsin S (Homo sapiens, UniProt P25774)
Sequence (P25774 whole entry): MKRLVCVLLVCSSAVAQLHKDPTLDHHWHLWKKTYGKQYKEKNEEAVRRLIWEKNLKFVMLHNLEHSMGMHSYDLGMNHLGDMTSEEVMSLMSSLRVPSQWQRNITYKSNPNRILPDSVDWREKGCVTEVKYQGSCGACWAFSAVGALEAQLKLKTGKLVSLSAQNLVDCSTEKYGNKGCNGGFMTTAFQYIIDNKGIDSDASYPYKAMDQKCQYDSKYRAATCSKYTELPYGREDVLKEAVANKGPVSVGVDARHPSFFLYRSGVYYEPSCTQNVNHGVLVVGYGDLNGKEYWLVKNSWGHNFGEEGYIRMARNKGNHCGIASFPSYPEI
pIC50: −log10 of the molar value.
Outcome measure: pIC50

What pIC50 value was documented for this compound, CCn1c(=O)c2c(nc(S)n2C)n(C)c1=O ?
< 3.70

* * *

Run description: Apparent permeability across apical to basolateral side in human Caco2 cells after 2 hrs by LC-MS/MS method
Type: ADME, cell-based
Test parameters: caco-2, 2 h
Outcome measure: Papp (×10⁻⁶ cm/s)
Answers are plain numbers, in ×10⁻⁶ cm/s.

What Papp value was documented for this molecule, Cn1c(=O)[nH]c(=O)c2c1nc(S)n2CC(O)COc1ccc(Cl)cc1 (stereo unspecified) ?
1.1

These measurements were taken from ChEMBL document CHEMBL4017504.
